# System: MCF-10A
# assay_comment: Cytotoxicity against human MCF-10A cells assessed as reduction in cell growth at 1 uM incubated for 48 hrs by BrdU cell proliferation assay
# Type: toxicity, cell-based
assay_readout: Activity

# annotated cases, reported Activity shown
CC#CCOc1ccc2cc(C(O)(c3ccc(Br)cc3)c3cccnc3)oc2c1 (centres undefined) : Non-Toxic
CC#CCOc1ccc2cc(C(O)(c3ccc(Cl)cc3)c3cccnc3)oc2c1 (centres undefined) : Non-Toxic
CCC#CCOc1ccc2cc(C(O)(c3ccc(Cl)cc3)c3cccnc3)oc2c1 (centres undefined) : Not Active
COc1ccc2cc(C(O)(c3ccc(Cl)cc3)c3cccnc3)oc2c1 (centres undefined) : Non-Toxic
COc1ccc2cc(C(O)(c3ccc(F)cc3)c3cccnc3)oc2c1 (centres undefined) : Non-Toxic

Problem: What does the data say about its Activity? Entry: COc1ccc2cc(C(O)(c3ccc(Br)cc3)c3cccnc3)oc2c1 (centres undefined)
Result: Non-Toxic

Problem: Same for COc1cccc2c1C(=O)c1c(O)c3c(c(O)c1C2=O)C[C@@](O)(C(=O)CO)C[C@@H]3O[C@H]1C[C@H](N)[C@H](O)[C@H](C)O1
Result: Not Active

Problem: Same for CCC#CCOc1ccc2cc(C(O)(c3ccc(Br)cc3)c3cccnc3)oc2c1 (centres undefined)
Result: Not Active

Problem: Same for COc1ccc2cc(C(O)(c3cccnc3)c3ccc(Cl)cc3Cl)oc2c1 (centres undefined)
Result: Non-Toxic
